# method summary: activity coefficient (dimensionless); of the first substance listed, at infinite dilution; xn = mol fraction of the nth substance listed
# measurement parameters: 353 K; Liquid; Chromatography; x1 = 0
Mark Satisfied only when activity coefficient stays strictly below 2. Values equal to the cut-off are Not satisfied.

INSERT INTO assay_data (molecule, class) VALUES
  ('CCc1ccco1 [2-ethylfuran] + CCCC[n+]1ccn(C)c1.O=S(=O)([N-]S(=O)(=O)C(F)(F)F)C(F)(F)F', 'Satisfied'),
  ('Cc1ccccc1 [toluene] + CCCCn1cc[n+](C)c1.[Cl-]', 'Not satisfied'),
  ('CCc1ccccc1 [ethylbenzene] + CCCCn1cc[n+](C)c1.[Cl-]', 'Not satisfied'),
  ('Cc1ccco1 [2-methylfuran] + CCCCn1cc[n+](C)c1.[Cl-]', 'Not satisfied'),
  ('Clc1ccccc1 [chlorobenzene] + CCCC[n+]1ccn(C)c1.O=S(=O)([N-]S(=O)(=O)C(F)(F)F)C(F)(F)F', 'Satisfied'),
  ('CO [methanol] + CCCC[n+]1ccn(C)c1.O=S(=O)([N-]S(=O)(=O)C(F)(F)F)C(F)(F)F', 'Satisfied'),
  ('CO [methanol] + CCCCn1cc[n+](C)c1.[Cl-]', 'Satisfied'),
  ('CCc1ccccc1 [ethylbenzene] + CCCC[n+]1ccn(C)c1.O=S(=O)([N-]S(=O)(=O)C(F)(F)F)C(F)(F)F', 'Not satisfied'),
  ('c1ccccc1 [benzene] + CCCC[n+]1ccn(C)c1.O=S(=O)([N-]S(=O)(=O)C(F)(F)F)C(F)(F)F', 'Satisfied'),
  ('Cc1ccc(C)o1 [2,5-dimethylfuran] + CCCCn1cc[n+](C)c1.[Cl-]', 'Not satisfied'),
  ('Cc1ccc(C)o1 [2,5-dimethylfuran] + CCCC[n+]1ccn(C)c1.O=S(=O)([N-]S(=O)(=O)C(F)(F)F)C(F)(F)F', 'Satisfied'),
  ('Clc1ccccc1 [chlorobenzene] + CCCCn1cc[n+](C)c1.[Cl-]', 'Not satisfied'),
  ('CCO [ethanol] + CCCCn1cc[n+](C)c1.[Cl-]', 'Satisfied'),
  ('CCc1ccco1 [2-ethylfuran] + CCCCn1cc[n+](C)c1.[Cl-]', 'Not satisfied');

---

# method summary: activity coefficient (dimensionless); of the first substance listed, at infinite dilution; xn = mol fraction of the nth substance listed
# measurement parameters: 323 K; Liquid; Chromatography; x1 = 0
measure name: activity coefficient

INSERT INTO assay_data (molecule, measure_name, numeric_result) VALUES
  ('c1ccoc1 [furan] + CCCCn1cc[n+](C)c1.[Cl-]', 'activity coefficient', 1.48),
  ('CO [methanol] + CCCC[n+]1ccn(C)c1.O=S(=O)([N-]S(=O)(=O)C(F)(F)F)C(F)(F)F', 'activity coefficient', 1.21),
  ('Cc1ccco1 [2-methylfuran] + CCCC[n+]1ccn(C)c1.O=S(=O)([N-]S(=O)(=O)C(F)(F)F)C(F)(F)F', 'activity coefficient', 1.12),
  ('c1ccccc1 [benzene] + CCCCn1cc[n+](C)c1.[Cl-]', 'activity coefficient', 4.14),
  ('c1ccoc1 [furan] + CCCC[n+]1ccn(C)c1.O=S(=O)([N-]S(=O)(=O)C(F)(F)F)C(F)(F)F', 'activity coefficient', 0.695),
  ('CCc1ccccc1 [ethylbenzene] + CCCCn1cc[n+](C)c1.[Cl-]', 'activity coefficient', 12.5),
  ('CCc1ccco1 [2-ethylfuran] + CCCCn1cc[n+](C)c1.[Cl-]', 'activity coefficient', 6),
  ('Cc1ccccc1 [toluene] + CCCC[n+]1ccn(C)c1.O=S(=O)([N-]S(=O)(=O)C(F)(F)F)C(F)(F)F', 'activity coefficient', 1.34),
  ('Cc1ccco1 [2-methylfuran] + CCCCn1cc[n+](C)c1.[Cl-]', 'activity coefficient', 3.76),
  ('Clc1ccccc1 [chlorobenzene] + CCCCn1cc[n+](C)c1.[Cl-]', 'activity coefficient', 3.58),
  ('CCO [ethanol] + CCCC[n+]1ccn(C)c1.O=S(=O)([N-]S(=O)(=O)C(F)(F)F)C(F)(F)F', 'activity coefficient', 1.48),
  ('Cc1ccc(C)o1 [2,5-dimethylfuran] + CCCCn1cc[n+](C)c1.[Cl-]', 'activity coefficient', 9.6),
  ('CO [methanol] + CCCCn1cc[n+](C)c1.[Cl-]', 'activity coefficient', 0.1);
